The measurements presented in this section are drawn from patent US20260232767A1.

- ASSAY PROTOCOL: Plasma concentrations (PK), Example 1
- Assay type: in vivo, human
- MEASUREMENT CONDITIONS: human, plasma, oral, 100 mg, 100 mg BID; Week 8; Trough; read-out: Plasma concentration, Median
- Description: For QD dosing, peak concentration was defined as any PK sample taken between 0.25 to <6 hours after the last morning dose and trough concentration was at least 20 hours after the last morning dose. For BID dosing, peak concentration was defined as any PK sample taken between 0.25 to <4 hours after the last dose and trough concentration was at least 8 hours after the last dose.
MEASUREMENT LABEL: level at 1344 h (ng/mL)
State just the number; it will be interpreted in ng/mL.

# input compound: CC(=O)NCCCC[C@@H]1NC(=O)[C@H](Cc2c[nH]c3c(C)cccc23)NC(=O)[C@H]([C@@H](C)O)NC(=O)[C@H](CC(N)=O)NC(=O)[C@@H](NC(C)=O)C(C)(C)SSC(C)(C)[C@@H](C(=O)N[C@@H](Cc2ccc(OCCN)cc2)C(=O)N[C@@H](Cc2ccc3ccccc3c2)C(=O)NC2(C(=O)N[C@@H](CCC(=O)O)C(=O)N[C@@H](CC(N)=O)C(=O)N[C@@H](Cc3cccnc3)C(=O)N(C)CC(N)=O)CCOCC2)NC1=O [IL-23 receptor antagonist peptide] ; wanted: its level at 1344 h
0.744

====

- ASSAY PROTOCOL: Plasma concentrations (PK), Example 1
- Format: in vivo, human
- MEASUREMENT CONDITIONS: human, plasma, oral, 50 mg, weight >90 kg, 50 mg QD, Week 12, Peak; read-out: Plasma concentration, Mean
MEASUREMENT LABEL: level at 2016 h (ng/mL)
State just the number; it will be interpreted in ng/mL.

# input compound: CC(=O)NCCCC[C@@H]1NC(=O)[C@H](Cc2c[nH]c3c(C)cccc23)NC(=O)[C@H]([C@@H](C)O)NC(=O)[C@H](CC(N)=O)NC(=O)[C@@H](NC(C)=O)C(C)(C)SSC(C)(C)[C@@H](C(=O)N[C@@H](Cc2ccc(OCCN)cc2)C(=O)N[C@@H](Cc2ccc3ccccc3c2)C(=O)NC2(C(=O)N[C@@H](CCC(=O)O)C(=O)N[C@@H](CC(N)=O)C(=O)N[C@@H](Cc3cccnc3)C(=O)N(C)CC(N)=O)CCOCC2)NC1=O [IL-23 receptor antagonist peptide] ; wanted: its level at 2016 h
0.786

====

- ASSAY PROTOCOL: Plasma concentrations (PK), Example 1
- Type: in vivo, human
- MEASUREMENT CONDITIONS: human, plasma, oral, 100 mg, 100 mg BID; Week 8; Peak; read-out: Plasma concentration, Mean
MEASUREMENT LABEL: level at 1344 h

# input molecule: CC(=O)NCCCC[C@@H]1NC(=O)[C@H](Cc2c[nH]c3c(C)cccc23)NC(=O)[C@H]([C@@H](C)O)NC(=O)[C@H](CC(N)=O)NC(=O)[C@@H](NC(C)=O)C(C)(C)SSC(C)(C)[C@@H](C(=O)N[C@@H](Cc2ccc(OCCN)cc2)C(=O)N[C@@H](Cc2ccc3ccccc3c2)C(=O)NC2(C(=O)N[C@@H](CCC(=O)O)C(=O)N[C@@H](CC(N)=O)C(=O)N[C@@H](Cc3cccnc3)C(=O)N(C)CC(N)=O)CCOCC2)NC1=O [IL-23 receptor antagonist peptide] ; wanted: its level at 1344 h
3.55 ng/mL
